tested on: UniProtKB Q13464
Sequence (Q13464 whole entry): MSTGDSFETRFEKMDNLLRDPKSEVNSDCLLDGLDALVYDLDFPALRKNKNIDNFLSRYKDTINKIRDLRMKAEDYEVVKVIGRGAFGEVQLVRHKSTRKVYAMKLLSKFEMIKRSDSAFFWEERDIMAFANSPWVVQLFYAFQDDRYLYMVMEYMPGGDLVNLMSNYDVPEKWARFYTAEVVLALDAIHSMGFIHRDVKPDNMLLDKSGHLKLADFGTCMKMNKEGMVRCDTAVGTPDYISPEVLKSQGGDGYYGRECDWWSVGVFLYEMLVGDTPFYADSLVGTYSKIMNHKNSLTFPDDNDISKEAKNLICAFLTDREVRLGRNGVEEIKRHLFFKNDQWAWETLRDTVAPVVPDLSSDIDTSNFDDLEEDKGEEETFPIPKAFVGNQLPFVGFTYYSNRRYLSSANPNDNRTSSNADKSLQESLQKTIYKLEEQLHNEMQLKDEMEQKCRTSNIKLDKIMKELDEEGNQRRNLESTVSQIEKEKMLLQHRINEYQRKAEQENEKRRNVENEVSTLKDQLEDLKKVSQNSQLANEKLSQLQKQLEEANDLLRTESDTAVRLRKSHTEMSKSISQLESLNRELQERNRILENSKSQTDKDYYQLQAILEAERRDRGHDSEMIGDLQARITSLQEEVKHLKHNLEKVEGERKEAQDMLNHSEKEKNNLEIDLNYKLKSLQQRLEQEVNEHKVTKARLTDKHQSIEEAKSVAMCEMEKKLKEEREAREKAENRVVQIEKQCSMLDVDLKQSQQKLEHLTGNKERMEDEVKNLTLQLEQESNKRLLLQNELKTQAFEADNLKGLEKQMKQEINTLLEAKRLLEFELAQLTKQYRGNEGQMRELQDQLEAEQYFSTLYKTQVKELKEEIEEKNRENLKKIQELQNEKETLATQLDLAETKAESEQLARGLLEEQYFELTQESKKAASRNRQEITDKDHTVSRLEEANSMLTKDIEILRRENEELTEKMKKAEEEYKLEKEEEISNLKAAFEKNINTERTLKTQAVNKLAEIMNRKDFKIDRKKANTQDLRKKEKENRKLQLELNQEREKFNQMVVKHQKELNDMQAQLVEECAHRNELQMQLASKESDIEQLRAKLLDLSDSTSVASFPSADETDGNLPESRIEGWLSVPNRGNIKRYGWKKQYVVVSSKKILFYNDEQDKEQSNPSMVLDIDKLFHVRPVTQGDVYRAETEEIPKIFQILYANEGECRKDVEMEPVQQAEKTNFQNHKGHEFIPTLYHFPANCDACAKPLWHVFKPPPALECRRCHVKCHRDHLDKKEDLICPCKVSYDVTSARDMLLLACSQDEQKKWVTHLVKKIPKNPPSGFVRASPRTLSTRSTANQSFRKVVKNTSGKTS
experimental protocol: ROCK1 enzymatic test (LANCE, phosphorylation of Ulight-RRRSLLE (PLK) substrate)
study conditions: human recombinant enzyme, 1 μM ATP, 50 nM Ulight-RRRSLLE (PLK) substrate, 30 minutes at ambient temperature; read-out: ROCK1(h), IC50
Structures can show the parent of a compound that is named as a salt.
property: IC50 (nM)

I = C[C@@H](N)c1ccc(C(=O)c2cccc3c(=O)[nH]ccc23)c2c1OCCO2 [Product P61, hydrochloride]
II = N[C@@H]1CCc2cc(F)c(C(=O)c3cccc4c(=O)[nH]ccc34)c(F)c21 [Product P59, hydrochloride]
III = CC(C)(N)c1cc(F)c(C(=O)c2cccc3cnccc23)c(F)c1 [Product P24, dihydrochloride]
IV = O=C(c1c(F)cc(C2CCCCN2)cc1F)c1cccc2c(=O)[nH]ccc12 (stereo not shown) [Product P75, hydrochloride]
Ask | List the 4 compounds shown above, ordered by increasing IC50. Labels, ranked as asked.
Reply | II, I, IV, III
